Tested on: NCI-H226 lung
Assay Procedure: NCI-60 one-dose screen, 48 h (100 = growth as untreated, 0 = no growth, -100 = all killed)
Condition Details: 10 µM unless noted
The panel holds about 83,000 compounds, 20% with a hit somewhere; the sample as a whole holds those more often.
Assay Readout: growth (%)
Your answer is read as %, so omit the unit and give the number.

For orientation, consider the following solved cases.
COc1cc(-c2ccc(-c3ccc(C(=N)N)nc3)s2)cc(OC)c1OC
102
COc1ccccc1C(=O)NC(=S)Nc1ccc(-c2nc3ccccc3[nH]2)cc1
46.3
CN1C[C@@H](c2ccc(Cl)cc2)[C@]2(NC(=S)N(c3ccccc3)C2=O)[C@@]12C(=O)NC1C=CC(Br)=C[C@H]12 (stereo partly specified)
66
C/C(=N\NC(N)=S)c1nc2ccc(Cl)cc2[nH]1
46.3
Cc1ccc(S(=O)(=O)Nc2sccc2-c2nc(-c3ccccc3)no2)cc1
87.9

I'd like to know its growth. The molecule in question is CCn1c(Sc2nnc(NC(=O)CCN3CCCC3)s2)nc2c1c(=O)n(C)c(=O)n2C
103

Again, but for Cc1nn(-c2ccccc2)c2c1C(c1ccc([N+](=O)[O-])cc1)C(C#N)=C(N)O2 (stereo unspecified)
99.3

Again, but for CCNCCNc1cc(C2CCCC2)c(C#N)c2nc3ccccc3n12
46.1

Again, but for O=C1CSC(c2ccccc2Cl)N1c1nnc(Cn2cnnc2)o1 (stereo unspecified)
78.8

Again, but for C=C(C=O)C1CCC2(C(=O)O)CCC3(C)C(CCC4C5(C)CCC(O)C(C)(C)C5CCC43C)C12 (stereo unspecified)
5.95

Again, but for O=C(O)CC1Sc2ccccc2NC1=O (stereo unspecified)
95.2

Again, but for C/C(=N\NC(=O)Cn1c(-c2ccc(S(C)(=O)=O)cc2)nc2cc(Cl)ccc21)c1ccc(Cl)cc1
79

Again, but for Cc1ccc(NSc2ccccc2[N+](=O)[O-])cc1
65.5

Again, but for CC(=O)c1sc(-c2ccccc2)cc1N
96.6

Again, but for CCCCCOC(=O)c1ccc(NC(=O)CNCC(C)C)cc1
84.7

Again, but for COc1cc(/C=C/C(=O)c2ccc(Nc3nc(Nc4ccccc4)nc(Nc4ccc(Cl)cc4)n3)cc2)cc(OC)c1OC
39.2

###

Test system: NCI-H226 lung
Assay Procedure: NCI-60 one-dose screen, 48 h (100 = growth as untreated, 0 = no growth, -100 = all killed)
Condition Details: 10 µM unless noted
About 83,000 compounds went through this panel and 20% of them were active in at least one assay; those are over-represented in the sample as a whole.
# growth values compiled below
Your answer is read as %, so omit the unit and give the number.

For orientation, consider the following solved cases.
CCN(CC)CCNc1ccc(C)c2sc3cc(C)ccc3c(=O)c12
95.5
CCN(CC)S(=O)(=O)c1ccc(O)c(NC(=O)c2[nH]c(C)c(C(C)=O)c2CCc2ccc(Cl)cc2)c1
62.5
CCOC(=O)c1nnn(C(Cc2ccccc2Cl)C(=O)OCC)c1C (stereo not drawn)
103
CN1CCN(CCCOc2ccc3nc(Nc4cc(Cl)cc(Cl)c4)ccc3c2)CC1
-9.2
CCCCN(CCCC)CCCn1c(=O)c2sc3ncccc3c2n2nnc(-c3ccccc3)c12
105
C[N+](C)(C)CCOC(OCC[N+](C)(C)C)(c1ccccc1)c1ccccc1
107
O=S(=O)(NCCNc1cc(-c2c(-c3cccc(O)c3)nc3sccn23)ccn1)c1ccc(Br)cc1
62.3
CCCn1nc(-c2ccccc2)c2c(-c3ccccc3)onc2c1=O
87.5
O=C1Nc2ccccc2SC1c1ccccc1Cl (stereo not drawn)
104
O=C1Nc2ccccc2SC1C1SC(=S)N(Cc2ccccc2)C1=O (stereo not drawn)
107

For the record CC(=O)OCCc1ccccc1 , what value of growth is listed for NCI-H226 lung?
108

Again, but for CCN(CC)CCOC(=O)Nc1ccccc1Cl
88.1

Again, but for CCOc1ccc(-c2nc3ccc(-c4nc5ccc(N6CCN(C)CC6)cc5[nH]4)cc3[nH]2)cc1OCC
-8.92

Again, but for N#Cc1c(N)nc2c(nnn2-c2cccc(C(F)(F)F)c2)c1N
92.4

###

System: EKVX NSCLC
Assay Procedure: NCI-60 one-dose screen, 48 h
Condition Details: 10 µM unless noted
This is part of a sample that, as a whole, favours compounds with a hit. Of some 83,000 tested, about 20% had one in any assay. The source made the active and inactive calls. How the source made its calls: active means growth percent below 10; inactive means the rest.
Form entry, call: pick from active, inactive

CCNCCNc1cc(-c2cccc(C(F)(F)F)c2)c(C#N)c2nc3ccccc3n12
active
O=C(NCc1cn(Cc2cccc(Oc3ccccc3)c2)nn1)c1cccnc1NCc1ccc(Cl)cc1
inactive

Pending compound:
Which result was noted for this compound in the test: Cc1nc(-c2ccccc2)cc2c(O)c(C(=O)N/N=C/c3ccc(N(C)C)cc3)[nH]c(=O)c12
inactive

###

Test system: HCC-2998 colon
Assay Procedure: NCI-60 one-dose screen, 48 h (100 = growth as untreated, 0 = no growth, -100 = all killed)
Condition Details: 10 µM unless noted
The panel holds about 83,000 compounds, 20% with a hit somewhere; the sample as a whole holds those more often.
Assay Readout: growth (%)
Your answer is read as %, so omit the unit and give the number.

For orientation, consider the following solved cases.
CN(C)c1ccc(C#Cc2c(F)cccc2Cl)cc1
76.2
CN(C)c1ccc2cc(-c3ccc(Cl)c(Cl)c3)c(N)nc2c1
44.7
N#Cc1cnn2c(-c3ccc(Cl)cc3)nc(NC3CC3)nc12
101

I'd like to know its growth. The molecule in question is Cc1nc(Nc2ccc(NC(=S)Nc3ccccc3)cc2)nc2nc(Nc3cccc(Cl)c3)[nH]c(=O)c12
114

Again, but for O=C1c2ccccc2C2(c3ccc(O)cc3)c3ccccc3Oc3cccc1c32 (stereo unspecified)
34.6

###

# growth values compiled below
System: OVCAR-8 ovarian
Assay Procedure: NCI-60 one-dose screen, 48 h (100 = growth as untreated, 0 = no growth, -100 = all killed)
Condition Details: 10 µM unless noted
Protocol: Growth inhibition of the OVCAR-8 human tumor cell line is measured as a screen for anti-cancer activity. Cells are grown in 96 well plates and exposed to the test compound for 48 hours. Compounds are tested at a single concentration, which is 10^-5 M for most compounds. The reported endpoint is percent growth (GI% or GIPRCNT), where numbers from 0 - 100% represent growth inhibition, and numbers from -100% - 0 represent cell death. For example, a value of 40 represents 60% growth inhibition. […]
About 83,000 compounds went through this panel and 20% of them were active in at least one assay; those are over-represented in the sample as a whole.
Your answer is read as %, so omit the unit and give the number.

For the record COc1ccc(-c2nnc(SCC(=O)NC3=NN=C(c4ccccc4)CS3)o2)cc1 , what value of growth is listed for OVCAR-8 ovarian?
83

Again, but for COc1cc(/C=C2\C=C(c3ccccc3)N(CCc3ccccc3)C2=O)cc(OC)c1OC
38.5

Again, but for Cc1nn(Cc2ccccc2)cc1C(=O)Nc1sc2c(c1C(N)=O)CCC(=O)C2
20.3

###

Test system: NCI-H460 lung
Assay Procedure: NCI-60 one-dose screen, 48 h
Condition Details: 10 µM unless noted
Compounds without any hit were thinned out: in the full panel of roughly 83,000, 20% have a hit. Activity calls are given as the source filed them. Rule for the calls: active = growth percent below 10; inactive = the rest.
Form entry, call: pick from true (active), false (inactive)

Cc1cc(N(CCCNc2ccnc3cc(Cl)ccc23)Cc2ccccn2)nc(N2CCOCC2)n1
false
CSc1nc2sc3cc(Cl)ccc3n2c(=N)c1C#N
false
COc1ccc(Cn2cnc3cc(C(=O)Nc4cccc5ccccc45)ccc32)c(OC)c1
true
NC(=O)c1c(NC(=O)c2ccc(C(F)(F)F)cc2Cl)sc2c1CCC(=O)C2
true
Clc1ccc(-c2nnc(-c3ccco3)o2)cc1
false
O=C(O)c1ccccc1C(=O)Nc1ccc(Cl)cc1
false

Which result was noted for this molecule in the test: Cc1ccc(/C=C(\C#N)n2nnc3cc(Cl)c(Cl)cc32)cc1
false

Again, but for O=C(/C=C/C12c3ccccc3C(c3ccccc31)C1C(=O)N(c3ccccc3)C(=O)C12)c1ccc(Cl)cc1 (configuration not stated)
true

Again, but for Clc1ccc(-c2cn(-c3ccccc3)c(-c3ccccc3)n2)cc1
false

Again, but for C=C1c2c(C)nn(-c3ccc(S(N)(=O)=O)cc3)c2N(C)C23CC1C1(C)c4c(C)nn(-c5ccc(S(N)(=O)=O)cc5)c4N(C)C(C)(CC12)C3 (configuration not stated)
false

Again, but for O=C(/C=C/C12c3ccccc3C(c3ccccc31)C1C(=O)NC(=O)C12)c1ccccc1 (configuration not stated)
true

Again, but for COC(=O)CNC(=O)C(=O)c1c(O)c(O)c(C(C)C)c2cc(C)c(-c3c(C)cc4c(C(C)C)c(O)c(O)c(C(=O)C(=O)NCC(=O)OC)c4c3O)c(O)c12
true

Again, but for O=C1Nc2ccccc2SC1C1SC(=S)N(Cc2ccccc2)C1=O (configuration not stated)
false

Again, but for C=C1c2c(C)nn(-c3ccc(NC(C)=O)cc3)c2N(C)C23CC1C1(C)c4c(C)nn(-c5ccc(NC(C)=O)cc5)c4N(C)C(C)(CC12)C3 (configuration not stated)
true

Again, but for Cn1c(NCCc2ccc(O)c(O)c2)nc2c1c(=O)n(Cc1ccc(Cl)cc1)c(=O)n2C
false

Again, but for CCCCCCCSc1ccc(C(=O)O)cc1
false

Again, but for N#Cc1c(Oc2ccc([N+](=O)[O-])cc2)nc2sc3cc(Cl)ccc3n2c1=N
false

Again, but for COc1cc2c(cc1OC)-c1ccc3cc4c(cc3c1N(CCCN1CCCCC1)C2)OCO4
false

Again, but for Cc1cc(-c2noc(C(F)(F)F)n2)ccc1N1CCN(c2cc(C(=O)N(C)C)no2)CC1
false

Again, but for N#Cc1cnn2c(-c3ccc(Cl)cc3)nc(NC3CC3)nc12
false

Again, but for CCOc1ccc2nc(-c3cccc(OCC(=O)NC(C)C)c3)nc(Nc3ccc(-c4cn[nH]c4)cc3)c2c1
true

Again, but for CC(=[N-])N1CCC[C@@H](Nc2c3ccccc3nc3ccccc23)C1.[Cl][Pt].[NH-]CCC[NH-]
true

Again, but for Cl.Fc1c[c-]c(-c2ccccn2)c(F)c1.[Pt].c1ccc([PH+](c2ccccc2)c2ccccc2[PH+](c2ccccc2)c2ccccc2)cc1
true

Again, but for O=c1[nH]c(NCc2nnnn2-c2ccc(Br)cc2)nc2sc3c(c12)CCCC3
false

Again, but for COc1ccc(NC(=O)C(=O)c2c[nH]c3ccc(F)cc23)cc1
false

Again, but for Nc1c(C(=O)c2ccc(Cl)s2)sc2nc3c(cc12)CCCC3
false

Again, but for Clc1ccc(/C=C/c2nc(Nc3ccc(Cl)cc3)c3ccccc3n2)cc1
false
